# Measurement Description: Toxicity in human erythrocytes assessed as hemolytic activity at 2000 ug/ml after 1 hr
# Assay type: cell-based, Erythrocyte
# Condition Description: read-out: Activity

{"Compound": "C=CC1C[N+]2(CC(=O)c3ccccc3)CCC1CC2[C@H](O)c1ccnc2ccc(OC)cc12.[Br-] (stereo partly specified)", "hemolysis at 1 h, 2000 ug/ml, %": 5}
{"Compound": "C=CC1C[N+]2(CC(=O)c3ccc([N+](=O)[O-])cc3)CCC1CC2[C@H](O)c1ccnc2ccc(OC)cc12.[Br-] (stereo partly specified)", "hemolysis at 1 h, 2000 ug/ml, %": 0}
{"Compound": "C=CC1C[N+]2(CC(=O)c3ccc(Br)cc3)CCC1CC2[C@H](O)c1ccnc2ccc(OC)cc12.[Br-] (stereo partly specified)", "hemolysis at 1 h, 2000 ug/ml, %": 25}
{"Compound": "C=C[C@H]1C[N@@]2CC[C@H]1C[C@H]2[C@H](O)c1ccnc2ccc(OC)cc12", "hemolysis at 1 h, 2000 ug/ml, %": 0}
{"Compound": "C=CC1C[N+]2(CC(=O)c3cccc4ccccc34)CCC1CC2[C@H](O)c1ccnc2ccc(OC)cc12.[Br-] (stereo partly specified)", "hemolysis at 1 h, 2000 ug/ml, %": 55}
{"Compound": "C=CC1C[N+]2(CC(=O)c3ccc(OC)cc3)CCC1CC2[C@H](O)c1ccnc2ccc(OC)cc12.[Br-] (stereo partly specified)", "hemolysis at 1 h, 2000 ug/ml, %": 0}
